# Test name: Toxicity liver stage against HepG2, at 10uM
# Type: cell-based
# Parameters: test concentration 10 uM, cell line HepG2-A16-CD81EGFP
# Settings: human, HepG2-A16-CD81EGFP cells; read-out: INHIBITION
Outcome measure: cytotoxicity at 10 µM (%)
Answer in %, number only, no unit symbol.

Take a look at these entries with their results.
{"columns": ["Compound", "Unit of measurement", "Observed result"],
 "data": [
  ["COc1ccc(C(=O)Nc2ccccc2-c2ccc(=O)n(C)n2)nn1", "%", 2.18],
  ["c1cnc(-c2nc(CN3CCn4c(nnc4C4CC4)C3)cs2)nc1", "%", -6.93],
  ["Cc1cnc(-c2cccc(-c3ccn(CCCO)n3)c2)nc1N(C)C", "%", -7.6],
  ["Cc1nc(S(=O)(=O)CCn2cccn2)n(C2CCCC2)c1C", "%", -0.829],
  ["Cc1noc(C2CCCN(C(=O)c3ccc(Br)o3)C2)n1 (centres undefined)", "%", 1.73],
  ["Cc1ncnc2c1CCN(C(=O)CN(C)C)CC2", "%", 0.964],
  ["COc1cnc(N2C[C@@H](CN3CCOCC3)[C@@H](CO)C2)nc1", "%", -9.25],
  ["CCOC(C)c1noc(CN2CCN(Cc3cccnc3)CC2)n1 (centres undefined)", "%", -4.55],
  ["c1cc(-c2c[nH]c([C@@H]3COCCN3CC3CC3)n2)ccn1", "%", 6.82],
  ["C=C(C)COc1ccccc1NC(=O)N1CCCCC1CO (centres undefined)", "%", -8.06]
]}

Qu. Field request: cytotoxicity at 10 µM | item: COc1cc(C)c(-c2ccc(F)c3c2OC(CN)C3)cc1C (centres undefined)
Ans. 20.3

Qu. Field request: cytotoxicity at 10 µM | item: N#Cc1ncn(CCC(=O)Nc2cccc(Cl)c2)n1
Ans. -152

Qu. Field request: cytotoxicity at 10 µM | item: Cc1nc(C)n(CC2CN(CCCOc3ccccc3)CCO2)n1 (centres undefined)
Ans. -0.924

Qu. Field request: cytotoxicity at 10 µM | item: CC(=O)NCc1cc2n(n1)CCN(Cc1ccccc1OC(F)(F)F)C2
Ans. -2.84

---

# Test name: Toxicity liver stage against HepG2, at 10uM
# Type: cell-based
# Set-up: test concentration 10 uM, cell line HepG2-A16-CD81EGFP
# Settings: human, HepG2-A16-CD81EGFP cells; read-out: INHIBITION
Label MET when cytotoxicity at 10 µM >= -10%; otherwise NOT MET.

{"columns": ["Compound", "Category"],
 "data": [
  ["CC(C)N1CCO[C@@H]2CN(S(=O)(=O)c3cccs3)CC[C@@H]2C1", "MET"],
  ["CN1C(=N)NC(=O)/C1=C/c1ccc(-c2ccc(Br)cc2)o1", "MET"],
  ["Cc1nn(C)c(C)c1NC(=O)CN1CCOC(CN(C)C)C1 (stereo unspecified)", "MET"]
]}

Qu. Please indicate if the recorded cytotoxicity at 10 µM for CCc1ccc(C(=O)N2CCCC2c2nnc3n2CCCCC3)o1 (stereo unspecified) meets or exceeds -10%.
Ans. MET

Qu. Please indicate if the recorded cytotoxicity at 10 µM for CCc1nccn1CCC(=O)N1C[C@@H]2CC[C@H]1CN(C(=O)N(C)C)C2 meets or exceeds -10%.
Ans. NOT MET

---

# Test name: Toxicity liver stage against HepG2, at 10uM
# Format: cell-based
# Design: test concentration 10 uM, cell line HepG2-A16-CD81EGFP
# Settings: human, HepG2-A16-CD81EGFP cells; read-out: INHIBITION
Outcome measure: cytotoxicity at 10 µM (%)
Answer in %, number only, no unit symbol.

Take a look at these entries with their results.
{"columns": ["Molecule", "cytotoxicity at 10 µM, %"],
 "data": [
  ["CS(=O)(=O)c1cc(NC(=O)COc2ccccc2F)cc(C(=O)O)c1", -9.24],
  ["CN(C)C(=O)N1CCCn2nc(CNC(=O)CCc3cccs3)cc2C1", -5.04],
  ["CC(C)C(C)(C#N)NC(=O)Cn1cc(Cl)cn1 (stereo unspecified)", 1.18],
  ["CCc1cnc2c(c1NCc1cccc(OC)c1)c(=O)n(C)c(=O)n2C", 24.8],
  ["CC(C)n1cc(C(=O)NCC(CO)Cc2cccs2)cn1 (stereo unspecified)", 7.64]
]}

Moving on to the next molecule.
Qu. Field request: cytotoxicity at 10 µM | item: COc1ccc2cc(-c3n[nH]cc3CN3CCSCC3)ccc2c1
Ans. 2.22

---

# Test name: Toxicity liver stage against HepG2, at 10uM
# Assay type: cell-based
# Parameters: test concentration 10 uM, cell line HepG2-A16-CD81EGFP
# Settings: human, HepG2-A16-CD81EGFP cells; read-out: INHIBITION
Outcome measure: cytotoxicity at 10 µM (%)
Answer in %, number only, no unit symbol.

{"columns": ["Compound", "Unit of measurement", "cytotoxicity at 10 µM"],
 "data": [
  ["O=C1CO[C@H]2CN(Cc3cccc(F)c3F)C[C@@H]2N1C1CCOCC1", "%", -12.3],
  ["Cc1nc(-c2noc3ccc(C(=O)NCCN4CCOCC4)cc23)co1", "%", 15],
  ["CNc1nc(C2CCCCN2C(=O)COC)nc2c1CN(C)CC2 (stereo unspecified)", "%", -13.1],
  ["CC(C)N(CC(N)=O)C(=O)c1cnc(-c2ccc3c(c2)OCO3)s1", "%", -5.92],
  ["CC(C)(C)c1nnc(CN2CCCC(c3cc(C(N)=O)[nH]n3)C2)o1 (stereo unspecified)", "%", -7.89],
  ["CC(=O)Nc1cccc(Cn2nc(C)nc2C)c1", "%", -3.19],
  ["CC(C)[C@@H]1CN(CCOc2ccccc2)C[C@H]1NS(=O)(=O)N(C)C", "%", -43],
  ["Cc1ccc(N2CCCC(Nc3nn4cc(C)nc4s3)C2)nn1 (stereo unspecified)", "%", -5.78],
  ["O=C(c1ccoc1)N1CC[C@H]2OCC[C@@]2(COc2ncccc2F)C1", "%", -9.31],
  ["CCN1CC2(CC1=O)CN(C(=O)c1ccco1)CCN(C(=O)C(C)C)C2 (stereo unspecified)", "%", -9.16]
]}

Qu. Field request: cytotoxicity at 10 µM | item: Cc1nccc(CN2Cc3nccn3CC2c2ccccc2)n1 (stereo unspecified)
Ans. 3.1

---

Below, each of the compounds is paired with its reported cytotoxicity at 10 µM value.
# Test name: Toxicity liver stage against HepG2, at 10uM
# Type: cell-based
# Parameters: test concentration 10 uM, cell line HepG2-A16-CD81EGFP
# Settings: human, HepG2-A16-CD81EGFP cells; read-out: INHIBITION
Answer in %, number only, no unit symbol.

Take a look at these entries with their results.
{"columns": ["Compound", "Unit of measurement", "cytotoxicity at 10 µM"],
 "data": [
  ["Cn1cc(C(=O)Nc2ccc(CC(=O)NC3CC3)cc2)nn1", "%", -7.42],
  ["O=C(NC1CCC1)C1=NOC2(CCN(Cc3ccco3)C2)C1 (stereo unspecified)", "%", -80.6],
  ["CN(C)C(=O)CO[C@H]1CN(Cc2ccc3c(c2)OCO3)[C@@H]2COC[C@H]12", "%", 5.9],
  ["O=C(O)c1cn(CC2CCCN(c3ccc4ccccc4n3)C2)nn1 (stereo unspecified)", "%", -7.14],
  ["COc1cccc(CNc2c(C)cnc3c2c(=O)n(C)c(=O)n3C)c1", "%", 21.1]
]}

Moving on to the next compound.
Qu. Field request: cytotoxicity at 10 µM | item: CCOC(=O)CN(CC(F)(F)F)C(=O)c1nc(C)n2ccccc12
Ans. -20.9

---

Below, each of the molecules is paired with its reported cytotoxicity at 10 µM value.
# Test name: Toxicity liver stage against HepG2, at 10uM
# Assay type: cell-based
# Set-up: test concentration 10 uM, cell line HepG2-A16-CD81EGFP
# Settings: human, HepG2-A16-CD81EGFP cells; read-out: INHIBITION
Answer in %, number only, no unit symbol.

Take a look at these entries with their results.
{"columns": ["Molecule", "cytotoxicity at 10 µM [%]"],
 "data": [
  ["Cc1ccc2nc(CNCCCN3CCCC3=O)cc(O)c2c1", -1.14],
  ["CC(Cc1ccccc1Br)NC(=O)CCS(C)(=O)=O (stereo not drawn)", -4.44],
  ["CCOCC(O)CN1CCN(C(=O)c2cc(C)ccc2F)CC1 (stereo not drawn)", 5.71],
  ["COC(=O)CCC(=O)N1CCc2nc(C(=O)N3CCOCC3)sc2CC1", 15.3],
  ["CC(=O)c1cc(C(=O)N2CCC(CC(C)C)C2)c(=O)[nH]c1C (stereo not drawn)", 4.4],
  ["CCOC(C)c1noc(CN2CCCNCC2)n1 (stereo not drawn)", 5.44]
]}

Qu. Field request: cytotoxicity at 10 µM | item: CCOCC(=O)N1C[C@@H]2CC[C@H](Oc3ccccc3)[C@@H]2C1
Ans. -16.1

Qu. Field request: cytotoxicity at 10 µM | item: Cc1cc(=O)n2ncnc2n1CC(O)c1ccccc1Cl (stereo not drawn)
Ans. 1.67
